- Method description: BSK_3C_uPAR: BioMAP Diversity Plus: 3C Assay for Urokinase-type plasminogen activator receptor (uPAR) Biomarker Activity (AID 2282998)
- Details: BioMAP 3C HUVEC, uPAR biomarker ELISA; actives raise or lower the signal
The source made the active and inactive calls. Rule for the calls: active = hit-call score of the fitted dose curve at least 0.9, where 1 is the maximum; inactive = score below 0.9.
Select the matching outcome among active, inactive

As a guide, the following entries are already answered.
{"columns": ["Compound", "Class label"],
 "data": [
  ["Cc1ccc([N+](=O)[O-])cc1", "inactive"],
  ["O=C(Nc1ccccc1)c1ccccc1I", "inactive"],
  ["Clc1ccc(C(c2ccc(Cl)cc2)C(Cl)Cl)cc1", "active"]
]}

Exercise: // outcome(item) with item = Cc1cc(N=Nc2ccccc2C)ccc1N
Solution: active

Exercise: // outcome(item) with item = N#CC(Br)Br
Solution: inactive

Exercise: // outcome(item) with item = O=C(O)C1C2CCC(O2)C1C(=O)O (stereo unspecified)
Solution: inactive

Exercise: // outcome(item) with item = COC(=O)Nc1nc2ccccc2[nH]1
Solution: active

Exercise: // outcome(item) with item = Clc1ccc(Cl)c(Cl)c1
Solution: inactive

Exercise: // outcome(item) with item = C=CCc1ccc2c(c1)OCO2
Solution: inactive

Exercise: // outcome(item) with item = Clc1ccccc1Cl
Solution: inactive

###

- Method description: CEETOX_H295R_ANDR: CeeTox H295R High-throughput Steroidogenesis Assay for Androstenedione (ANDR) (AID 2283436);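 note: human H295R adrenal cells exposed for 48 h with androstenedione measured in medium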
- Details: actives raise or lower the signal
Activity calls are given as the source filed them. How the source made its calls: active means hit-call score of the fitted dose curve at least 0.9, where 1 is the maximum; inactive means score below 0.9.
Experimental readout: AC50

Some entries whose results are on file:
{"columns": ["Entry smiles", "AC50"],
 "data": [
  ["Nc1ccc(Cl)cc1N", "inactive"],
  ["CC(C)(O)c1cnn2c(-c3ccc(F)c(-c4c(F)cccc4C#N)c3)cnc2n1", "inactive"],
  ["C[C@]12C=CC3=C4CCC(=O)C=C4CC[C@H]3[C@@H]1CC[C@@H]2O", "90.1 µM (active)"],
  ["Cc1cc(N=Nc2ccccc2C)ccc1N", "inactive"],
  ["O=C(Nc1ccccc1)c1ccccc1I", "inactive"]
]}

Exercise: Could you share which AC50 value was measured for CC(C)N(Cc1ccccc1)C(=O)C(C)(C)C ?
Solution: inactive

###

- Method description: Tanguay_ZF_120hpf_TRUN_legacy: (Legacy) Oregon State University Tanguay Lab 120 Hour Post-fertilization zebrafish Assay for Truncated Body (AID 2283655)
Records with an inconclusive call do not appear. Active and inactive are the calls of the source. How the source made its calls: active means hit-call score of the fitted dose curve at least 0.9, where 1 is the maximum; inconclusive means response in the unintended direction; inactive means score below 0.9.
Select the matching outcome among 1 (yes) = active, 0 (no) = inactive

{"columns": ["Entry smiles", "Class label"],
 "data": [
  ["c1ccc2c(c1)-c1cccc3cccc-2c13", "0 (no)"],
  ["O=P(OCCCl)(OCCCl)OCCCl", "0 (no)"],
  ["Nc1cc(Cl)cc(C(=O)O)c1Cl", "0 (no)"],
  ["[Cl-].[Cl-].[Hg+2]", "1 (yes)"],
  ["COc1cc(C=O)cc2c1[C@H](COC(N)=O)[C@]1(OC(C)=O)ON2C[C@H]2[C@@H]1N2C(C)=O", "0 (no)"]
]}

Exercise: // outcome(item) with item = Nc1ccc([N+](=O)[O-])cc1
Solution: 0 (no)

Exercise: // outcome(item) with item = N#CC(Br)(Br)C(N)=O
Solution: 0 (no)

###

- Tested on: DIO2 (gene 1734)
- Method description: CCTE_GLTED_hDIO2: CCTE's human Deiodinase 2 (DIO2) Inhibition Assay, Great Lakes Toxicology and Ecology Division (GLTED) Lab (AID 2284050)
The source made the active and inactive calls. The calls were made as follows: active = hit-call score of the fitted dose curve at least 0.9, where 1 is the maximum; inconclusive = response in the unintended direction; inactive = score below 0.9.
Select the matching outcome among active, inactive

{"columns": ["Entry smiles", "Class label"],
 "data": [
  ["CCNS(=O)(=O)C(F)(F)C(F)(F)C(F)(F)C(F)(F)C(F)(F)C(F)(F)C(F)(F)C(F)(F)F", "active"],
  ["Oc1ccc2ccc3cccc4ccc1c2c34", "active"],
  ["ClCCOCCCl", "inactive"],
  ["CCCCCCCCn1sccc1=O", "active"]
]}

API: the following record is the query input.
Exercise: // outcome(item) with item = CN(C)[C@@H]1C(=O)C(C(N)=O)=C(O)[C@@]2(O)C(=O)C3=C(O)c4c(O)cccc4[C@@](C)(O)[C@H]3C[C@@H]12
Solution: inactive

###

- Test system: Aryl hydrocarbon receptor (Homo sapiens) (UniProt P35869)
- Sequence (P35869 whole entry, looked up): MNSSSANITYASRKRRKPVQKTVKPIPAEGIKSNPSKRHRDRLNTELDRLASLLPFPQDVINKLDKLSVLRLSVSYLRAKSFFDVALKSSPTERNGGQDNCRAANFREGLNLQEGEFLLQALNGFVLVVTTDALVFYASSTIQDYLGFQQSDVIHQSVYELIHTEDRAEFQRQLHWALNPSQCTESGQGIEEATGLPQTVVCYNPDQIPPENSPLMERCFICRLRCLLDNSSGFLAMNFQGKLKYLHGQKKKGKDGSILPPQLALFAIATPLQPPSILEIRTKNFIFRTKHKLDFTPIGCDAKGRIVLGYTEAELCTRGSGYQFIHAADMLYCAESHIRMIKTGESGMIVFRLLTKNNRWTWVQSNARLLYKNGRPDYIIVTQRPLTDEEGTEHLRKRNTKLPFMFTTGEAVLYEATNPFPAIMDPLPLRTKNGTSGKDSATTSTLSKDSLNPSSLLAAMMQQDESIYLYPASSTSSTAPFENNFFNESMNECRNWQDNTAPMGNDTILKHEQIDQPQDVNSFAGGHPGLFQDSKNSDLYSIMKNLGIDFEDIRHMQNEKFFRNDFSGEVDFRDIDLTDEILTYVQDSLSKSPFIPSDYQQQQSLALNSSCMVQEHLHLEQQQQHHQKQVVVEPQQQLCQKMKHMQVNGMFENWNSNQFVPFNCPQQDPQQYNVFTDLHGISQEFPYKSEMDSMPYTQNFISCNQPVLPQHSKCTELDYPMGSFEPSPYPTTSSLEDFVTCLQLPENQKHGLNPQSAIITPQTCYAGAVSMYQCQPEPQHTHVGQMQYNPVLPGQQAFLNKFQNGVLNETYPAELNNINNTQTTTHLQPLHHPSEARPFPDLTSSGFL
- Method description: ATG_Ahr_CIS: Attagene CIS-FACTORIAL HepG2 Assay for human Aryl Hydrocarbon Receptor (Ahr) (AID 2282930)
- Details: HepG2 AhR cis-factorial reporter transcription; actives raise or lower the signal
Activity calls are given as the source filed them. How the source made its calls: active means hit-call score of the fitted dose curve at least 0.9, where 1 is the maximum; inactive means score below 0.9.
Select the matching outcome among active, inactive

{"columns": ["Molecule", "Class label"],
 "data": [
  ["O=C(Oc1ccc(Br)cc1)N1CCN2CCC1CC2", "inactive"]
]}

Exercise: // outcome(item) with item = CC(O)CCO (configuration not stated)
Solution: inactive

Exercise: // outcome(item) with item = CC(C)(O)c1cnn2c(-c3ccc(F)c(-c4c(F)cccc4C#N)c3)cnc2n1
Solution: inactive

Exercise: // outcome(item) with item = CCCCC(CC)COC(=O)c1ccc(C(=O)OCC(CC)CCCC)c(C(=O)OCC(CC)CCCC)c1 (configuration not stated)
Solution: inactive

Exercise: // outcome(item) with item = Nc1cc(Cl)cc(C(=O)O)c1Cl
Solution: active

Exercise: // outcome(item) with item = CCOc1cccc(C2(N3CCN(c4ccccc4)CC3)CCC(C)CC2)c1 (configuration not stated)
Solution: inactive

Exercise: // outcome(item) with item = c1ccc(C2CO2)cc1 (configuration not stated)
Solution: inactive

###

- Method description: CCTE_Shafer_MEA_acute_AB: CCTE's Alamar Blue Assay for Cytotoxicity in the Neural Acute Assay, Shafer Lab (AID 2284069);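 note: active compounds lower the viability signal compared with DMSO wells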
Inconclusive results are not listed. Active and inactive are the calls of the source. The calls were made as follows: active = hit-call score of the fitted dose curve at least 0.9, where 1 is the maximum; inconclusive = response in the unintended direction; inactive = score below 0.9.
Select the matching outcome among active, inactive

As a guide, the following entries are already answered.
{"columns": ["Compound", "Class label"],
 "data": [
  ["c1ccc(N=Nc2ccccc2)cc1", "inactive"],
  ["CCC(C)c1ccc(O)cc1 (centres undefined)", "inactive"],
  ["C[N+](C)(C)CC1CO1 (centres undefined)", "inactive"],
  ["O=Cc1ccco1", "inactive"],
  ["ClCCOCCCl", "inactive"],
  ["CCCCOC(=O)c1ccccc1C(=O)OCc1ccccc1", "inactive"]
]}

Exercise: // outcome(item) with item = CCCCCCCCn1sccc1=O
Solution: inactive

Exercise: // outcome(item) with item = [Cl-].[Cl-].[Hg+2]
Solution: active

###

- Method description: ACEA_AR_agonist_AUC_viability: ACEA Biosciences xCELLigence Real-Time Cell Analysis on Androgen Receptor Agonism for Viability (AID 2283775)
Records with an inconclusive call do not appear. The source made the active and inactive calls. How the source made its calls: active means hit-call score of the fitted dose curve at least 0.9, where 1 is the maximum; inconclusive means response in the unintended direction; inactive means score below 0.9.
Select the matching outcome among 1 = active, -1 = inactive

As a guide, the following entries are already answered.
{"columns": ["Compound", "Class label"],
 "data": [
  ["OCCCBr", -1],
  ["Clc1ccc(C(c2ccc(Cl)cc2)C(Cl)(Cl)Cl)cc1", 1],
  ["CC(C)COC(=O)c1ccccc1C(=O)OCC(C)C", 1],
  ["[Cl-].[Cl-].[Hg+2]", 1],
  ["COP(=S)(OC)SCN1C(=O)c2ccccc2C1=O", 1]
]}

Exercise: // outcome(item) with item = C[N+](C)(C)CC1CO1 (centres undefined)
Solution: -1

Exercise: // outcome(item) with item = CCOc1cccc(C2(N3CCN(c4ccccc4)CC3)CCC(C)CC2)c1 (centres undefined)
Solution: -1

Exercise: // outcome(item) with item = CC(C)N(Cc1ccccc1)C(=O)C(C)(C)C
Solution: -1

###

- Read-out: Cytochrome P450 (CYP1A2), CYP1A2 (gene 1544)
- Method description: LTEA_HepaRG_CYP1A2: Life Technologies and Expression Analysis (LTEA) Assay for Cytochrome P450 (CYP1A2) using HepaRG (AID 2283479);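 for AC50: TaqMan qRT-PCR transcript level normalized to ACTB GAPDH and POLR2A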
- Details: mRNA level, 48 h; actives raise or lower the signal
Active and inactive are the calls of the source. Rule for the calls: active = hit-call score of the fitted dose curve at least 0.9, where 1 is the maximum; inactive = score below 0.9.
Experimental readout: AC50

Some entries whose results are on file:
{"columns": ["Compound", "Result"],
 "data": [
  ["CC(C)(O)c1cnn2c(-c3ccc(F)c(-c4c(F)cccc4C#N)c3)cnc2n1", "29.7 µM (active)"],
  ["CCC[CH2][Sn]([Cl])([CH2]CCC)[CH2]CCC", "1.58 µM (active)"],
  ["C[C@]12C=CC3=C4CCC(=O)C=C4CC[C@H]3[C@@H]1CC[C@@H]2O", "inactive"],
  ["ClCCOCCCl", "inactive"],
  ["Oc1ccccc1Cl", "inactive"],
  ["Nc1ccc(Cl)cc1N", "0.811 µM (active)"],
  ["Clc1ccc(C(c2ccc(Cl)cc2)C(Cl)(Cl)Cl)cc1", "inactive"],
  ["[As]#[In]", "inactive"],
  ["N#CC(Br)Br", "inactive"],
  ["c1ccc(NNc2ccccc2)cc1", "32.7 µM (active)"]
]}

Please find the next compound below.
Exercise: Could you share which AC50 value was measured for C=CCc1ccc2c(c1)OCO2 ?
Solution: inactive
